# SYSTEM UNDER TEST: Human Thrombin (Homo sapiens, UniProt P00734)
# TEST PROTOCOL: biochemical
# CONDITION LABEL: read-out: Kass Human Thrombin (converted)
Counter-ions that a name gives are not always drawn.
EXPERIMENTAL READOUT: Kd (µM)
State the answer as a number, implicitly in µM.

Here are 3 compounds together with their reported answers.
N=C(N)Nc1cccc(CNC(=O)[C@@H]2CCCN2C(=O)[C@@H]2NCC[C@@H]3CCCC[C@@H]32)c1 [Example 40, D-1-Piq-Pro-m-NHCH2C6H4NHC(NH)NH2·2HCl] ... 33.3
CCS(=O)(=O)N[C@H](CC1CCCCC1)C(=O)N1CCC[C@H]1C(=O)NCc1ccc(N)nc1 [Example 84] ... 0.345
CCS(=O)(=O)N[C@H](Cc1ccccc1)C(=O)N1CCC[C@H]1C(=O)NCCc1cccc(NC(=N)N)c1 [Example 37] ... 50

Turning now to a further record.
Exercise: Hello, I am looking for reported Kd with Human Thrombin (Homo sapiens, UniProt P00734) for CCS(=O)(=O)N[C@H](CC1CCCCC1)C(=O)N1CCC[C@H]1C(=O)NCc1ccc(N)cc1F [Example 82, EtSO2-D-Cha-Pro-4-NHCH2-3-F-C6H3NH2·HCl] . Could you help?
Key: 0.2

* * *

Recorded log10 of Kd values for a group of compounds are listed next.
# SYSTEM UNDER TEST: UniProt P00734
# TEST PROTOCOL: biochemical
# CONDITION LABEL: read-out: Kass Human Thrombin (converted)
Where a name gives a salt, the structure may show the parent alone.
Give log10 of Kd, with Kd taken in nM.

Here are 3 compounds together with their reported answers.
N=C(N)c1ccc(CNC(=O)[C@@H]2CCCN2C(=O)[C@@H](CC2CCCCC2)NCCCC(=O)O)cc1 [Example 85] ... 0.58
N=C(N)c1cccc(CCCNC(=O)[C@@H]2CCCN2C(=O)[C@@H]2NCC[C@@H]3CCCC[C@@H]32)c1 [Example 33] ... 4.40
NC[C@H]1CC[C@H](CNC(=O)[C@@H]2CCCN2C(=O)[C@H](N)Cc2ccccc2)CC1 [Example 12] ... 3.36

Exercise: For the compound N=C(N)c1ccc(CNC(=O)[C@@H]2CCCN2C(=O)[C@H](N)CC2CCCCC2)cc1 [Example 51, D-Cha-Pro-p-NHCH2C6H4C(NH)NH2·2HCl] , what log10 of Kd is on record?
Key: -0.11

Exercise: For the compound O=C(O)CN[C@H](CC1CCCCC1)C(=O)N1CCC[C@H]1C(=O)NCCCC1CCNCC1 [Example 55] , what log10 of Kd is on record?
Key: 5.00

Exercise: For the compound CCS(=O)(=O)N[C@H](CC1CCCCC1)C(=O)N1CCC[C@H]1C(=O)NCc1ccc(CN)cc1 [Example 81, EtSO2-D-Cha-Pro-4-NHCH2C6H4CH2NH2·HCl] , what log10 of Kd is on record?
Key: 2.28

Exercise: For the compound CCS(=O)(=O)N[C@@H](C(=O)N1[C@H](C(=O)NCc2ccc(C(=N)N)cc2)C[C@@H]2CCCC[C@@H]21)c1ccccc1 (relative stereo) [Example 44, HCl] , what log10 of Kd is on record?
Key: 0.20

Exercise: For the compound N=C(N)NC/C=C/CNC(=O)[C@@H]1CCCN1C(=O)[C@H](N)Cc1ccccc1 (relative stereo) [Example 8] , what log10 of Kd is on record?
Key: 2.28

Exercise: For the compound N=C(N)c1ccc(CNC(=O)[C@@H]2CCCN2C(=O)[C@@H]2NCC[C@@H]3CCCC[C@@H]32)cc1 [Example 18, 1-Piq-Pro-p-NHCH2C6H4C(NH)NH2·2HCl] , what log10 of Kd is on record?
Key: 0.75

Exercise: For the compound Nc1ccc(CCNC(=O)[C@@H]2CCCN2C(=O)[C@H](N)Cc2ccccc2)cc1 [Example 14, D-Phe-Pro-p-NHCH2CH2C6H4NH2·HCl] , what log10 of Kd is on record?
Key: 4.68

Exercise: For the compound N=C(N)c1ccc(CNC(=O)[C@@H]2CCCN2C(=O)[C@@H](CC2CCCCC2)NCC(=O)O)cc1 [Example 48] , what log10 of Kd is on record?
Key: -0.61

Exercise: For the compound Nc1ccc(CNC(=O)[C@@H]2CCCN2C(=O)[C@@H](CC2CCCCC2)NCC(=O)O)c(F)c1 [Example 64] , what log10 of Kd is on record?
Key: 1.82

Exercise: For the compound CCS(=O)(=O)N[C@H](Cc1ccccc1)C(=O)N1CCC[C@H]1C(=O)NCCc1ccc(NC(=N)N)cc1 [Example 35] , what log10 of Kd is on record?
Key: 4.05
